molecular target: Pyruvate kinase PKM (Homo sapiens) (UniProt P14618); assay: Secondary LDH Assay for Activators of Human Pyruvate Kinase M2 isoform: for Probe SAR; details: purified hPK-M2, LDH-coupled NADH fluorescence kinetic; series mostly up to 58.4 µM
Sequence (P14618 whole entry, looked up, canonical isoform): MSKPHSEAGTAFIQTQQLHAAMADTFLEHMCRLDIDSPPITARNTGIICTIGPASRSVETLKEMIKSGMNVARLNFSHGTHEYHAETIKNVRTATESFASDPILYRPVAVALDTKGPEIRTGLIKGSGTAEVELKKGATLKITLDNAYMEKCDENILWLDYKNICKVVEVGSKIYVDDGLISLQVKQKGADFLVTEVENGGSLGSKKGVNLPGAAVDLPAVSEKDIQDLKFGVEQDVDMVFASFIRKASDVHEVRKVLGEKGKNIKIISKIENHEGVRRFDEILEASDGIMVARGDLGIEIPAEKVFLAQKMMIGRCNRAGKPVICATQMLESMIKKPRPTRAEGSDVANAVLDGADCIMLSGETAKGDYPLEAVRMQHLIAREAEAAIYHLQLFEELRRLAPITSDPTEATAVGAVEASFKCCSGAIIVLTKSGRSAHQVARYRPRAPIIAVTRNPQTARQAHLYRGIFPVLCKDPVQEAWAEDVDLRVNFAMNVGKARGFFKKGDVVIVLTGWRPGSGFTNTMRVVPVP
Records with an inconclusive call do not appear. Calls of active or inactive are those of the source. Calls follow the shape of the dose curve; as a rule, active = well fitted activation curve with a large enough effect; inconclusive = small, poorly fitted or top-dose-only effect, or effect the other way; inactive = flat fitted curve, though single readings scatter.
Outcome (select one): y (active), n (inactive)

*Q* What was the test verdict on Cc1ccn2c(NC3CCCCC3)c(-c3ccc(C)o3)nc2c1 ?
*A* n

*Q* Likewise for O=S1(=O)N=C(Oc2ccccc2)c2ccccc21 ?
*A* n

*Q* Likewise for CSc1cc2c(s1)c1cnn(Cc3cccc(O)c3)c(=O)c1n2C ?
*A* y

*Q* Likewise for COc1cccc(Cn2ncc3c4sc(SC)cc4n(C)c3c2=O)c1 ?
*A* y

*Q* Likewise for COc1cccc(OC2=NS(=O)(=O)c3ccccc32)c1 ?
*A* n

*Q* Likewise for O=C1c2ccccc2C(=O)N1c1cccc2ccncc12 ?
*A* n

*Q* Likewise for Cc1ccc(NS(=O)(=O)c2ccc(F)cc2)cc1C ?
*A* n

*Q* Likewise for Cc1ccc(-c2nc3ccc(Cl)cn3c2Nc2ccccc2)o1 ?
*A* n

*Q* Likewise for O=S(=O)(c1ccc2c(c1)OCCO2)N1CCN(S(=O)(=O)c2c(F)cccc2F)CC1 ?
*A* y

*Q* Likewise for Cc1cccc(OC2=NS(=O)(=O)c3ccccc32)c1 ?
*A* n

*Q* Likewise for COc1ccc(S(=O)(=O)Nc2ccc(C)c(C)c2)cc1 ?
*A* n

*Q* Likewise for Cc1ccc(C)c(OC2=NS(=O)(=O)c3ccccc32)c1 ?
*A* n

*Q* Likewise for O=C1c2ccccc2C(=O)N1c1cccc2cccnc12 ?
*A* n

*Q* Likewise for Cc1cc2c(s1)c1cnn(Cc3cc(F)ccc3F)c(=O)c1n2C ?
*A* y

*Q* Likewise for Cc1ccc2nc(-c3ccncc3)c(Nc3ccccc3)n2c1 ?
*A* n

*Q* Likewise for Cc1ccc(N(C)S(=O)(=O)c2ccc3c(c2)CCC(=O)N3)cc1C ?
*A* n

*Q* Likewise for Cc1ccc(N2C(=O)c3ccccc3C2=O)c(C)c1 ?
*A* n

*Q* Likewise for O=C1CCc2cc(S(=O)(=O)Nc3ccccc3Cl)ccc2N1 ?
*A* n

*Q* Likewise for O=C1CCc2cc(S(=O)(=O)Nc3ccc(F)cc3)ccc2N1 ?
*A* n

*Q* Likewise for CC(=O)Nc1cccc(S(=O)(=O)Nc2ccc(C)c(C)c2)c1 ?
*A* n

*Q* Likewise for Cc1ccc(NS(=O)(=O)c2cc3c(cc2N(C)C)NC(=O)CC3)cc1C ?
*A* y

*Q* Likewise for Cc1cccc(NS(=O)(=O)c2ccc3c(c2)CCC(=O)N3)c1 ?
*A* y

*Q* Likewise for O=C1c2ccccc2C(=O)N1c1noc2ccccc12 ?
*A* n

*Q* Likewise for Cc1ccc(NS(=O)(=O)c2ccc3c(c2)CCC(=O)N3)cc1 ?
*A* y

*Q* Likewise for O=C1c2ccccc2C(=O)N1c1cccc(O)c1 ?
*A* n

*Q* Likewise for CCCCN1C(=O)c2ccccc2C1=O ?
*A* n

*Q* Likewise for O=C1c2ccccc2C(=O)N1c1cccc2cnccc12 ?
*A* n

*Q* Likewise for CC(=O)Nc1ccc(S(=O)(=O)Nc2ccc(C)c(C)c2)cc1 ?
*A* n

*Q* Likewise for Cc1nc(-c2ccc(S(=O)(=O)Nc3ccc(C)c(C)c3)s2)cs1 ?
*A* n

*Q* Likewise for Nc1cc(S(=O)(=O)N2CCN(S(=O)(=O)c3ccc4c(c3)OCCO4)CC2)ccn1 ?
*A* n

*Q* Likewise for O=C1CCc2cc(S(=O)(=O)NCc3ccccc3)ccc2N1 ?
*A* n

*Q* Likewise for COc1ccccc1NS(=O)(=O)c1ccc2c(c1)CCC(=O)N2 ?
*A* n

*Q* Likewise for Cc1ccc(NS(=O)(=O)c2cc3c(cc2/C=C/c2ccccc2)NC(=O)CO3)cc1C ?
*A* n

*Q* Likewise for O=C1c2ccccc2C(=O)N1c1ccc(Cl)cc1 ?
*A* n

*Q* Likewise for O=C1CCc2cc(S(=O)(=O)Nc3ccccc3-c3ccccc3)ccc2N1 ?
*A* n

*Q* Likewise for Cn1c2cc(S(C)=O)sc2c2cnn(Cc3cccc(O)c3)c(=O)c21 (stereo not given) ?
*A* y

*Q* Likewise for Cc1ccc(NS(=O)(=O)c2ccc3c(c2)CCCC(=O)N3)cc1C ?
*A* n

*Q* Likewise for Cc1ccc2nc(-c3cccs3)c(Nc3ccccc3)n2c1 ?
*A* n

*Q* Likewise for O=C1c2ccccc2C(=O)N1c1ccc2ccccc2n1 ?
*A* n

*Q* Likewise for CC(=O)N1CCCc2cc(S(=O)(=O)Nc3ccc(C)c(C)c3)ccc21 ?
*A* n

Data origin: PubChem BioAssay AID2576
